- Test system: vancomycin-resistant enterococci
- PROTOCOL: broth micro-dilution, mean geometric MIC
- Type: cell-based, Enterococcus faecium and Enterococcus faecalis
- CONDITION: enterococci, 24-hour incubation
READOUT: mean geometric MIC, Vancomycin Resistant Strains

>  <COMPOUND>
CN[C@H](CC(C)C)C(=O)N[C@H]1C(=O)N[C@@H](CC(N)=O)C(=O)N[C@H]2C(=O)N[C@H]3C(=O)N[C@H](C(=O)N[C@H](C(=O)O)c4cc(O)cc(O)c4-c4cc3ccc4O)[C@H](O[C@H]3C[C@](C)(N)[C@@H](O)[C@H](C)O3)c3ccc(c(Cl)c3)Oc3cc2cc(c3O[C@@H]2O[C@H](CO)[C@@H](O)[C@H](O)[C@H]2O[C@H]2C[C@](C)(NCc3ccc(-c4cccc(F)c4)cc3)[C@@H](O)[C@H](C)O2)Oc2ccc(cc2Cl)[C@H]1O [Compound 92]

>  <TEST_SYSTEM>
vancomycin-resistant enterococci

>  <RESULT>
1.7 µg/mL

$$$$
>  <COMPOUND>
CNC(CC(C)C)C(=O)NC1C(=O)NC(CC(N)=O)C(=O)NC2C(=O)NC3C(=O)NC(C(=O)NC(C(=O)O)c4cc(O)cc(O)c4-c4cc3ccc4O)C(OC3CC(C)(N)C(O)C(C)O3)c3ccc(c(Cl)c3)Oc3cc2cc(c3OC2OC(CO)C(O)C(O)C2OC2CC(C)(NCc3ccc4ccccc4n3)C(O)C(C)O2)Oc2ccc(cc2Cl)C1O (stereo not drawn) [Compound 30]

>  <TEST_SYSTEM>
vancomycin-resistant enterococci

>  <RESULT>
4.7 µg/mL

$$$$
>  <COMPOUND>
CNC(CC(C)C)C(=O)NC1C(=O)NC(CC(N)=O)C(=O)NC2C(=O)NC3C(=O)NC(C(=O)NC(C(=O)O)c4cc(O)cc(O)c4-c4cc3ccc4O)C(OC3CC(C)(N)C(O)C(C)O3)c3ccc(c(Cl)c3)Oc3cc2cc(c3OC2OC(CO)C(O)C(O)C2OC2CC(C)(NCc3ccc(-c4ccc(OC)cc4)s3)C(O)C(C)O2)Oc2ccc(cc2Cl)C1O (stereo not drawn) [Compound 71]

>  <TEST_SYSTEM>
vancomycin-resistant enterococci

>  <RESULT>
11 µg/mL

$$$$

====

- Tested on: Staphylococcus aureus SA1199B
- Format: cell-based

>  <COMPOUND>
CNC(CC(C)C)C(=O)NC1C(=O)NC(CC(N)=O)C(=O)NC2C(=O)NC3C(=O)NC(C(=O)NC(C(=O)O)c4cc(O)cc(O)c4-c4cc3ccc4O)C(OC3CC(C)(N)C(O)C(C)O3)c3ccc(c(Cl)c3)Oc3cc2cc(c3OC2OC(CO)C(O)C(O)C2OC2CC(C)(NCc3ccc(OS(C)(=O)=O)cc3)C(O)C(C)O2)Oc2ccc(cc2Cl)C1O (stereo not drawn)

>  <MIC>
1 µg/mL

$$$$
>  <COMPOUND>
CNC(CC(C)C)C(=O)NC1C(=O)NC(CC(N)=O)C(=O)NC2C(=O)NC3C(=O)NC(C(=O)NC(C(=O)O)c4cc(O)cc(O)c4-c4cc3ccc4O)C(OC3CC(C)(N)C(O)C(C)O3)c3ccc(c(Cl)c3)Oc3cc2cc(c3OC2OC(CO)C(O)C(O)C2OC2CC(C)(NCCc3cccc(Oc4ccccc4)c3)C(O)C(C)O2)Oc2ccc(cc2Cl)C1O (stereo not drawn)

>  <MIC>
1 µg/mL

$$$$
>  <COMPOUND>
CNC(CC(C)C)C(=O)NC1C(=O)NC(CC(N)=O)C(=O)NC2C(=O)NC3C(=O)NC(C(=O)NC(C(=O)O)c4cc(O)cc(O)c4-c4cc3ccc4O)C(OC3CC(C)(N)C(O)C(C)O3)c3ccc(c(Cl)c3)Oc3cc2cc(c3OC2OC(CO)C(O)C(O)C2OC2CC(C)(NCc3ccc(OS(=O)(=O)c4c(C)c(C)c(C)c(C)c4C)cc3)C(O)C(C)O2)Oc2ccc(cc2Cl)C1O (stereo not drawn)

>  <MIC>
4 µg/mL

$$$$
>  <COMPOUND>
CC(C)CC(C(=O)NC1C(=O)NC(CC(N)=O)C(=O)NC2C(=O)NC3C(=O)NC(C(=O)NC(C(=O)O)c4cc(O)cc(O)c4-c4cc3ccc4O)C(OC3CC(C)(N)C(O)C(C)O3)c3ccc(c(Cl)c3)Oc3cc2cc(c3OC2OC(CO)C(O)C(O)C2OC2CC(C)(NCc3ccc(-c4ccccc4)cc3)C(O)C(C)O2)Oc2ccc(cc2Cl)C1O)N(C)Cc1ccc(-c2ccccc2)cc1 (stereo not drawn)

>  <MIC>
≤ 0.06 µg/mL

$$$$
>  <COMPOUND>
CNC(CC(C)C)C(=O)NC1C(=O)NC(CC(N)=O)C(=O)NC2C(=O)NC3C(=O)NC(C(=O)NC(C(=O)O)c4cc(O)cc(O)c4-c4cc3ccc4O)C(OC3CC(C)(N)C(O)C(C)O3)c3ccc(c(Cl)c3)Oc3cc2cc(c3OC2OC(CO)C(O)C(O)C2OC2CC(C)(NCc3cccc(Oc4ccc(C(F)(F)F)cc4)c3)C(O)C(C)O2)Oc2ccc(cc2Cl)C1O (stereo not drawn)

>  <MIC>
2 µg/mL

$$$$
>  <COMPOUND>
CNC(CC(C)C)C(=O)NC1C(=O)NC(CC(N)=O)C(=O)NC2C(=O)NC3C(=O)NC(C(=O)NC(C(=O)O)c4cc(O)cc(O)c4-c4cc3ccc4O)C(OC3CC(C)(N)C(O)C(C)O3)c3ccc(c(Cl)c3)Oc3cc2cc(c3OC2OC(CO)C(O)C(O)C2OC2CC(C)(NCc3ccc(OC)c4ccccc34)C(O)C(C)O2)Oc2ccc(cc2Cl)C1O (stereo not drawn)

>  <MIC>
0.25 µg/mL

$$$$

FYI, the data here is from patent US5840684A.
